# assay-protocol: Half life in healthy human plasma at 25 mg, po administered as single dose
# Format: ADME, organism-based
reported-metric: half-life
Just so you know, I need the unit written after the number.

Suppose we examine the molecule C=C(C)[C@@H]1CC[C@]2(C(=O)O)CC[C@]3(C)[C@H](CC[C@@H]4[C@@]5(C)CC[C@H](OC(=O)CC(C)(C)C(=O)O)C(C)(C)[C@@H]5CC[C@]43C)[C@@H]12 [BEVIRIMAT] ; what half-life value has been reported?
55.8 h

* * *

# assay-protocol: Tmax in healthy human plasma at 100 mg, po administered as single dose
# Type: ADME, organism-based
reported-metric: Tmax (h)
Answers are plain numbers, in h.

Suppose we examine the molecule "C=C(C)[C@@H]1CC[C@]2(C(=O)O)CC[C@]3(C)[C@H](CC[C@@H]4[C@@]5(C)CC[C@H](OC(=O)CC(C)(C)C(=O)O)C(C)(C)[C@@H]5CC[C@]43C)[C@@H]12" ; what Tmax value has been reported?
2

* * *

# assay-protocol: Apparent oral clearance in healthy human plasma at 100 mg, po administered as single dose
# Type: ADME, organism-based
reported-metric: CL/F (mL/h/kg)
One number for each entry, in mL/h/kg.

Suppose we examine the compound C=C(C)[C@@H]1CC[C@]2(C(=O)O)CC[C@]3(C)[C@H](CC[C@@H]4[C@@]5(C)CC[C@H](OC(=O)CC(C)(C)C(=O)O)C(C)(C)[C@@H]5CC[C@]43C)[C@@H]12 [BEVIRIMAT] ; what CL/F value has been reported?
1.75

* * *

# assay-protocol: Cmax in healthy human plasma at 50 mg, po administered as single dose
# Format: ADME, organism-based
# Parameters: dose 50 mg, route oral
reported-metric: Cmax
Just so you know, I need the unit written after the number.

Suppose we examine the molecule "C=C(C)[C@@H]1CC[C@]2(C(=O)O)CC[C@]3(C)[C@H](CC[C@@H]4[C@@]5(C)CC[C@H](OC(=O)CC(C)(C)C(=O)O)C(C)(C)[C@@H]5CC[C@]43C)[C@@H]12" ; what Cmax value has been reported?
6060 ng/mL

* * *

# assay-protocol: AUC (0 to infinity) in healthy human plasma at 250 mg, po administered as single dose
# Assay type: ADME, organism-based
# Set-up: dose 250 mg, time infinity, route oral
reported-metric: AUC(0-inf) (µg·h/mL)
Numbers only, in µg·h/mL.

Suppose we examine the compound C=C(C)[C@@H]1CC[C@]2(C(=O)O)CC[C@]3(C)[C@H](CC[C@@H]4[C@@]5(C)CC[C@H](OC(=O)CC(C)(C)C(=O)O)C(C)(C)[C@@H]5CC[C@]43C)[C@@H]12 [BEVIRIMAT] ; what AUC(0-inf) value has been reported?
1800

* * *

# assay-protocol: AUC (0 to infinity) in healthy human plasma at 25 mg, po administered as single dose
# Assay type: ADME, organism-based
# Design: dose 25 mg, time infinity, route oral
reported-metric: AUC(0-inf) (µg·h/mL)
Answers are plain numbers, in µg·h/mL.

Suppose we examine the compound "C=C(C)[C@@H]1CC[C@]2(C(=O)O)CC[C@]3(C)[C@H](CC[C@@H]4[C@@]5(C)CC[C@H](OC(=O)CC(C)(C)C(=O)O)C(C)(C)[C@@H]5CC[C@]43C)[C@@H]12" ; what AUC(0-inf) value has been reported?
151

* * *

# assay-protocol: Drug concentration in healthy human urine assessed as unconjugated drug level at 250 mg, po administered as single dose after 48 hrs
# Format: ADME, organism-based
# details: read-out: Drug uptake
reported-metric: dose excreted at 48 h (%)
One number for each entry, in %.

Suppose we examine the compound "C=C(C)[C@@H]1CC[C@]2(C(=O)O)CC[C@]3(C)[C@H](CC[C@@H]4[C@@]5(C)CC[C@H](OC(=O)CC(C)(C)C(=O)O)C(C)(C)[C@@H]5CC[C@]43C)[C@@H]12" ; what dose excreted at 48 h value has been reported?
0.82

* * *

# assay-protocol: Tmax in healthy human plasma at 25 mg, po administered as single dose
# Format: ADME, organism-based
reported-metric: Tmax (h)
Numbers only, in h.

Suppose we examine the compound "C=C(C)[C@@H]1CC[C@]2(C(=O)O)CC[C@]3(C)[C@H](CC[C@@H]4[C@@]5(C)CC[C@H](OC(=O)CC(C)(C)C(=O)O)C(C)(C)[C@@H]5CC[C@]43C)[C@@H]12" ; what Tmax value has been reported?
1.75

* * *

# assay-protocol: Tmax in healthy human plasma at 250 mg, po administered as single dose
# Format: ADME, organism-based
reported-metric: Tmax (h)
Numbers only, in h.

Suppose we examine the compound C=C(C)[C@@H]1CC[C@]2(C(=O)O)CC[C@]3(C)[C@H](CC[C@@H]4[C@@]5(C)CC[C@H](OC(=O)CC(C)(C)C(=O)O)C(C)(C)[C@@H]5CC[C@]43C)[C@@H]12 [BEVIRIMAT] ; what Tmax value has been reported?
2.5

* * *

# assay-protocol: AUC (0 to infinity) in healthy human plasma at 100 mg, po administered as single dose
# Type: ADME, organism-based
# Set-up: dose 100 mg, route oral, time infinity
reported-metric: AUC(0-inf) (µg·h/mL)
One number for each entry, in µg·h/mL.

Suppose we examine the molecule C=C(C)[C@@H]1CC[C@]2(C(=O)O)CC[C@]3(C)[C@H](CC[C@@H]4[C@@]5(C)CC[C@H](OC(=O)CC(C)(C)C(=O)O)C(C)(C)[C@@H]5CC[C@]43C)[C@@H]12 [BEVIRIMAT] ; what AUC(0-inf) value has been reported?
983

* * *

# assay-protocol: Half life in healthy human plasma at 50 mg, po administered as single dose
# Type: ADME, organism-based
reported-metric: half-life (h)
One number for each entry, in h.

Suppose we examine the compound C=C(C)[C@@H]1CC[C@]2(C(=O)O)CC[C@]3(C)[C@H](CC[C@@H]4[C@@]5(C)CC[C@H](OC(=O)CC(C)(C)C(=O)O)C(C)(C)[C@@H]5CC[C@]43C)[C@@H]12 [BEVIRIMAT] ; what half-life value has been reported?
56.7

* * *

# assay-protocol: Tmax in healthy human plasma at 50 mg, po administered as single dose
# Type: ADME, organism-based
reported-metric: Tmax (h)
Answers are plain numbers, in h.

Suppose we examine the compound "C=C(C)[C@@H]1CC[C@]2(C(=O)O)CC[C@]3(C)[C@H](CC[C@@H]4[C@@]5(C)CC[C@H](OC(=O)CC(C)(C)C(=O)O)C(C)(C)[C@@H]5CC[C@]43C)[C@@H]12" ; what Tmax value has been reported?
1
